ASSAY_TEXT: Stability (half-life) in 0.1 M phosphate buffer, pH 7.4, at 37° C., HPLC analysis
Type: physicochemical
TEST_SETTINGS: pH 7.4, 37° C.
Consider the following molecules; for each one, report its half-life at 0.1 mg/ml.
Field format: number, assumed h, no unit text.

Enquiry: Look at this molecule and give its reported half-life at 0.1 mg/ml. CN1CC[C@]23c4c5ccc(OC(=O)Cc6ccccc6Nc6c(Cl)cccc6Cl)c4O[C@H]2[C@@H](O)C=C[C@H]3[C@H]1C5 [Inventive compound (10)]
Return: 2.5

Enquiry: Now this one: COc1ccc2cc(C(C)C(=O)OCOC(=O)Oc3ccc4c5c3O[C@H]3[C@@H](O)C=CC6[C@@H](C4)N(C)CC[C@@]563)ccc2c1 (some centres unmarked) [Inventive compound (16)]
Return: 7.6

From: patent US20030022876A1
